The measurements presented in this section are drawn from paper PMC8391104.

Biological target: T1, Mad1^CTD R650A (human, UniProt Q9Y6D9 597-718, R650A)
T1 sequence: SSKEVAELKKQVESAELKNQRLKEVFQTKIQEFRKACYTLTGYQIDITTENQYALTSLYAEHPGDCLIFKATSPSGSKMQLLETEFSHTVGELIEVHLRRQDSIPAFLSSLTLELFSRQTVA
Assay: ITC
Where no end group is shown, it is not given here. [ ]: non-standard residue; d: D form. pT = C[C@@H](OP(=O)(O)O)[C@H](N)C(=O)O; pS = N[C@@H](COP(=O)(O)O)C(=O)O

binder	Kd, nM
KVQP[pS]P[pT]VHTKEALGFIMNMFQAPTS [doubly phosphorylated Bub1^CD1 peptide (pSer459-pThr461)]	1100
